- System: mouse splenic cells
- measurement_description: Inhibitory action on blastogenesis of mouse splenic cells ([3H]-thymidine incorporation)
- Assay type: cell-based
- details: 5 μg/ml concanavalin A, 72 hours; read-out: Lymphocyte blastogenesis IC50 (μM), ConA stimulation
- Method: Inhibitory Action on Blastogenesis of Mouse Splenic Cells The spleen was excised from each of BALB/c mice (Charles River Japan; female; 10-week-old), and it was allowed to pass through a mesh to obtain a single cell suspension. […] Thereafter, scintillator was added thereto, and the radioactivity of [^3H]-thymidine incorporated into the cells was then measured using a liquid scintillation counter. The inhibition rate of the DNA synthesis was calculated using the aforementioned formula (3). […]
metric_name: IC50 (µM)
Numbers only, in µM.

Answered cases to consult:
[
  {
    "compound": "CC(C)NC(=O)Nc1nc2nccc(-c3cccc(OCCC4OCCCO4)c3)n2n1 [Example 183]",
    "IC50 [µM]": 0.55
  },
  {
    "compound": "COc1ccc(-c2ccnc3nc(NC(=O)N[C@@H](C)CCCC(C)C)nn23)cc1 [Example 160]",
    "IC50 [µM]": 0.07
  },
  {
    "compound": "CC(C)NC(=O)Nc1nc2nccc(-c3cccc(OCC4CCCO4)c3)n2n1 (stereo not shown) [Example 184]",
    "IC50 [µM]": 0.63
  }
]

Consider now this further compound.
Exam item: What value of measured IC50 is listed for COc1ccc(-c2ccnc3nc(NC(=O)N[C@@H](C)c4cccc(OC)c4)nn23)cc1 [Example 132] ?
Marked response: 0.08

Values compiled from patent US7598244B2.
